- Target: JNK1-dc20 (JNK1 with the C-terminal 20 residues truncated) (human, UniProt P45983 1-427)
- Sequence (P45983 other isoform, or with tags, fused parts or gaps): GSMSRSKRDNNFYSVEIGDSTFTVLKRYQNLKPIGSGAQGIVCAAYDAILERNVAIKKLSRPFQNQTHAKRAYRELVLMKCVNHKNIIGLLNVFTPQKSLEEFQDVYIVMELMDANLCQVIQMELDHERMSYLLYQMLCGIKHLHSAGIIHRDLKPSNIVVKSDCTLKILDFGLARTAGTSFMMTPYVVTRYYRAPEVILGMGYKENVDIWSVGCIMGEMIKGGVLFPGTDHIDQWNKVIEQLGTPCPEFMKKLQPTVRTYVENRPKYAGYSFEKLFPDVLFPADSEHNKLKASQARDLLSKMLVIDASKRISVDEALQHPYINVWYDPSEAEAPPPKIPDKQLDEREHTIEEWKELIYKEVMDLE
- Assay name: FP
Measurement name: Kd (µM)
Unit µM implied. Number only.

[[record]]
binder = "MBP-ATF2(19–100) (domain or fragment) MSDDKPFLCTAPGCGQRFTNEDHLAVHKHKHEMTLKFGPARNDSVIVADQTPTPTRFLKNCEEVGLFNELASPFENEFKKAS"
measurement_name = "Kd"
observed_value = 3.5

[[record]]
binder = "MBP-c-Jun(1–78) (domain or fragment) MTAKMETTFYDDALNASFLPSESGPYGYSNPKILKQSMTLNLADPVGSLKPHLRAKNSDLLTSPDVGLLKLASPELER"
measurement_name = "Kd"
observed_value = 3.8

[[record]]
binder = "MSDDKPFLCTAPGCGQRFTNEDHLAVHKHKHEMTLKFGPA (domain or fragment) [ATF2(19–58) as used in the competitive fluorescence polarisation assay]"
measurement_name = "Kd"
observed_value = 4.5


Query binder follows.
Inquiry: What does the data say about its Kd? Entry: MBP-c-Jun(1–78) K35E (domain or fragment) MTAKMETTFYDDALNASFLPSESGPYGYSNPKILEQSMTLNLADPVGSLKPHLRAKNSDLLTSPDVGLLKLASPELER
Reply text: 55

Attribution: paper PMC7666158
